Test system: KM12 colon
assay protocol: NCI-60 one-dose screen, 48 h (100 = growth as untreated, 0 = no growth, -100 = all killed)
test conditions: 10 µM unless noted
Protocol: Growth inhibition of the KM12 human tumor cell line is measured as a screen for anti-cancer activity. Cells are grown in 96 well plates and exposed to the test compound for 48 hours. Compounds are tested at a single concentration, which is 10^-5 M for most compounds. The reported endpoint is percent growth (GI% or GIPRCNT), where numbers from 0 - 100% represent growth inhibition, and numbers from -100% - 0 represent cell death. For example, a value of 40 represents 60% growth inhibition. […]
The panel holds about 83,000 compounds, 20% with a hit somewhere; the sample as a whole holds those more often.
measure: growth (%)

compound: CCOC(=O)c1nnn(Cc2cc(=O)oc3c2ccc2ccccc23)c1C
measure: growth
unit: %
result value: 104
//
compound: O=C1CCCCN1CCCCC#Cc1cccc(C#Cc2cccnc2)c1
measure: growth
unit: %
result value: 73.6
//
compound: COc1ccc2c(c1)CCNC21C(=O)Nc2c(Br)cc(Br)cc21 (configuration not stated)
measure: growth
unit: %
result value: 104
//
compound: Cc1ccc(-c2nc(C#N)c(S(=O)(=O)N(C)C)o2)cc1
measure: growth
unit: %
result value: 95.4
//
compound: COc1ccc(C/C(C)=C(/c2ccc(OCCN3CCCCCC3)cc2)c2ccc(OC(=O)c3ccccc3)cc2)cc1
measure: growth
unit: %
result value: 120
//
compound: COc1ccc(-c2cc(-c3cccc(Cl)c3)c(C#N)c(=O)[nH]2)c(OC)c1
measure: growth
unit: %
result value: 102
//
compound: N=C(N)c1ccc(-c2ccc(-c3ccc(Cl)c(Cl)c3)s2)cc1
measure: growth
unit: %
result value: -91.4
